# TESTED_SYSTEM: UniProt O00507
# Sequence (O00507 whole entry, the tested form may be a part): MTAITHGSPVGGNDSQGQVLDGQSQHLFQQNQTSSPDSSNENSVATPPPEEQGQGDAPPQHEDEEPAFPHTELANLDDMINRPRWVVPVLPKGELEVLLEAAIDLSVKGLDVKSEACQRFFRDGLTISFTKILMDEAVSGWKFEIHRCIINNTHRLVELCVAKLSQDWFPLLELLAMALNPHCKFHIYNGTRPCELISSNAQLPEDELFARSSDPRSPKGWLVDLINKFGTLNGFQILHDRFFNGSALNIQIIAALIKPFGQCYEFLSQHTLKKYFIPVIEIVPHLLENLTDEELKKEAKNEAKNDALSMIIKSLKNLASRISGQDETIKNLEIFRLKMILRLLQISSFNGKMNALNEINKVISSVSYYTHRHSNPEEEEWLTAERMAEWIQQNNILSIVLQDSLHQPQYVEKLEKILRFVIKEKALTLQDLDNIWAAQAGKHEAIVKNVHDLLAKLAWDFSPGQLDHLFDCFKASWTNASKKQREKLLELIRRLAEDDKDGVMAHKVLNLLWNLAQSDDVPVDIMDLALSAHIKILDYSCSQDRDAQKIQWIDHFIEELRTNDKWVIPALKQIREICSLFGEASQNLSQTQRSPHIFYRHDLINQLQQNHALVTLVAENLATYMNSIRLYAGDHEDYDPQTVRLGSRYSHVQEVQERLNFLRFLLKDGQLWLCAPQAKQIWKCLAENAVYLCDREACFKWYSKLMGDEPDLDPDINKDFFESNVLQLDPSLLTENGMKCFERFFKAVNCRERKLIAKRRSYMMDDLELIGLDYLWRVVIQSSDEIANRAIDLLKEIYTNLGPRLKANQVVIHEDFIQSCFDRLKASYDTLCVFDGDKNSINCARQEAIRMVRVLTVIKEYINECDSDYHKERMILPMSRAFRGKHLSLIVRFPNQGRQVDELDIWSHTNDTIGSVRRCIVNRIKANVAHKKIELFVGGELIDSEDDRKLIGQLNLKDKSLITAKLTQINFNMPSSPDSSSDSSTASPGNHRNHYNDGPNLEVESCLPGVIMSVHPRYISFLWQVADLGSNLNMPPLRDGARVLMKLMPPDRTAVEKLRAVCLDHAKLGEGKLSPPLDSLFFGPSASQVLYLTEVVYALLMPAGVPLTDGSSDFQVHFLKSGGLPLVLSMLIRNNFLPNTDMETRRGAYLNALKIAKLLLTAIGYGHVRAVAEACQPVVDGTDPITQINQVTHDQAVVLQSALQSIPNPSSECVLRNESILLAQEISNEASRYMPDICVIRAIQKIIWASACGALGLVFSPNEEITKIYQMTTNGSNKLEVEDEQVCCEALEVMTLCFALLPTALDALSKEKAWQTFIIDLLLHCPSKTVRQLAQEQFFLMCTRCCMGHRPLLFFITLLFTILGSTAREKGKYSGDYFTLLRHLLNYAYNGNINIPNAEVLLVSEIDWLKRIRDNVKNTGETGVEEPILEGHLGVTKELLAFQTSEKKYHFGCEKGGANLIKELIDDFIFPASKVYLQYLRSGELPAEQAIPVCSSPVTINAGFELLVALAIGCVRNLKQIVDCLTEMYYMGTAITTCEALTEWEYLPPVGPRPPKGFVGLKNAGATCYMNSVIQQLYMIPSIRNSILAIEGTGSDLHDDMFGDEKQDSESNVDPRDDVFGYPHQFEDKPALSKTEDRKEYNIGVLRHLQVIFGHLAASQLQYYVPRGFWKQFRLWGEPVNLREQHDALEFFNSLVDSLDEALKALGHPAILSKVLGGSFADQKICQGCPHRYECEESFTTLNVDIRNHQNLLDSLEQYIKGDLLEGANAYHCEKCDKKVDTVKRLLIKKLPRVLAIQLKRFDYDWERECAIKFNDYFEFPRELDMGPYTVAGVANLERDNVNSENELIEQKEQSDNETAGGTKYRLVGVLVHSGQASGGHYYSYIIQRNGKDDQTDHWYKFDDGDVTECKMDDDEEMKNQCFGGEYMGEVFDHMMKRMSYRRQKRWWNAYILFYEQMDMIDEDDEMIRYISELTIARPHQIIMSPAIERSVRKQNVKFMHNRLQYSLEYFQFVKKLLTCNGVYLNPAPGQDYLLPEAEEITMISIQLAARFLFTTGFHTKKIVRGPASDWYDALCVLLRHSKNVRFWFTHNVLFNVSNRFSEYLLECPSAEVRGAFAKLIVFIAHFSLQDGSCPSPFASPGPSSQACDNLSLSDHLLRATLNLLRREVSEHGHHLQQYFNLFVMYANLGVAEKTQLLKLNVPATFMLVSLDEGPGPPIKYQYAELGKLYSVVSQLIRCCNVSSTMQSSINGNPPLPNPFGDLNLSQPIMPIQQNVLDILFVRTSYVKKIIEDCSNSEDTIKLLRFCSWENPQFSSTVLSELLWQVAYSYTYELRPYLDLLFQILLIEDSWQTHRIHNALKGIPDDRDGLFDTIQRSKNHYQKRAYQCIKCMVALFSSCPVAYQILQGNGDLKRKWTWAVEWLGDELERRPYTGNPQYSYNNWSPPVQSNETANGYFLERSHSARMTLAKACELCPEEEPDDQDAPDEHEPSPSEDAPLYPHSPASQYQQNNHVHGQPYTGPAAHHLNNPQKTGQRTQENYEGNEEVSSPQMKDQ
# PROTOCOL_TEXT: log2 ratio of Biotin-Ahx-Ub-VS probe labelling (fragment/DMSO); higher = less target engagement (more negative = stronger competition), active = hit call of the paper (q ≤ 0.05, log2 ratio ≤ -1)
# CONDITION_PARAMETERS: compound concentration: 200 uM; treatment time: 3 h
Classification field: enter true (1) for log2 ratio of Biotin-Ahx-Ub-VS probe labelling values not below -0.3, false (0) for values below it.

| COMPOUND | CLASS_LABEL |
| --- | --- |
| O=C(CCl)N(C1=CCCCC1)C1CC1 | true (1) |

Task item: Check if log2 ratio of Biotin-Ahx-Ub-VS probe labelling >= -0.3 (inclusive). Item: Cc1cnc2[nH]cc(CCNC(=O)CCl)c2c1
Reply: true (1)

Task item: Check if log2 ratio of Biotin-Ahx-Ub-VS probe labelling >= -0.3 (inclusive). Item: O=C(CCl)NCc1noc(C2CC2)n1
Reply: false (0)

Task item: Check if log2 ratio of Biotin-Ahx-Ub-VS probe labelling >= -0.3 (inclusive). Item: O=C(CCl)N1c2ccccc2NC(=O)C12CCCC2
Reply: false (0)
